Here the recorded fold change of Tryptamine concentration is given for each entry.
tested on: Ruminococcus gnavus DSM 108212; test: fold change of Tryptamine concentration vs plate DMSO controls (fold change (ratio)); higher = more amine produced, active = hit call of the paper (significant change in both replicates, either direction); conditions: incubation time: 27 h, anaerobic, 37 °C
Where a name gives a salt, the structure may show the parent alone.
No unit in the answer, only the number.

| compound | target.under.test | value.observed |
| --- | --- | --- |
| CCN(CC)CCNC(=O)c1cc(Br)c(N)cc1OC [Bromopride] (20 µM) | Ruminococcus gnavus DSM 108212 | 1 |

Ask: Tell me the measured fold change of Tryptamine concentration of COc1cc2/c(=N/c3ccc(Br)cc3F)nc[nH]c2cc1OCC1CCN(C)CC1 [Vandetanib] (20 µM) , please.
Result: 1.11

Ask: Tell me the measured fold change of Tryptamine concentration of NCCCC[C@H](N[C@@H](CCc1ccccc1)C(=O)O)C(=O)N1CCC[C@H]1C(=O)O [Lisinopril] (20 µM) , please.
Result: 0.981

Ask: Tell me the measured fold change of Tryptamine concentration of NNC(=O)c1ccncc1 [Isoniazid] (20 µM) , please.
Result: 0.851

Ask: Tell me the measured fold change of Tryptamine concentration of Clc1ccc2nsnc2c1NC1=NCCN1 [Tizanidine hydrochloride] (20 µM) , please.
Result: 0.0877
